These entries and their values trace back to paper PMC9482650.

- tested on: T1, MPP7, Q5T2T1
- T1 sequence (Q5T2T1 134-230, limits assumed, looked up): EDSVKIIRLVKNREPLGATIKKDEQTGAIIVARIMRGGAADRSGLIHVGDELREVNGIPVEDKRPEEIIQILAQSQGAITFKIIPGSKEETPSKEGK
- method notes: holdup assay
- Parameters: key: below the threshold = too weak to quantify, mostly under pKd 3.1 to 4
- test settings: plain residues with an end cap or a label only (N-terminal biotin on a linker: ado-ado)
measured endpoint: pKd

binder: RDYTQSSSSL [GRM5, P41594]
measured endpoint: pKd
assay value: below the threshold
--
binder: PSVYSRSQYV [CLDN8, P56748]
measured endpoint: pKd
assay value: below the threshold
--
binder: EFKQTSSFLV [JAM1, Q9Y624]
measured endpoint: pKd
assay value: 3.74
--
binder: GQNMTVSVVI [PRLHR, P49683]
measured endpoint: pKd
assay value: below the threshold
